- Tested on: MKN28 (Gastric Carcinoma);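 also: after 72 h of two-drug dosing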
- Assay Name: Bliss excess, mean over the matrix (fraction); higher = more synergy
The compounds listed here are annotated with their Bliss excess.

Compound	Bliss excess
CC(=O)Nc1cccc(-n2c(=O)n(C3CC3)c(=O)c3c(Nc4ccc(I)cc4F)n(C)c(=O)c(C)c32)c1 [Trametinib] + Cc1nc(-c2cn3c(n2)-c2ccc(-c4cnn(C(C)(C)C(N)=O)c4)cc2OCC3)n(C(C)C)n1 [Taselisib] (first compound max 1 µM, 7x7, partner max 10 µM)	0.0966
CC(=O)c1c(C)c2cnc(Nc3ccc(N4CCNCC4)cn3)nc2n(C2CCCC2)c1=O [Palbociclib] + CC1(C)CCC(CN2CCN(c3ccc(C(=O)NS(=O)(=O)c4ccc(NCC5CCOCC5)c([N+](=O)[O-])c4)c(Oc4cnc5[nH]ccc5c4)c3)CC2)=C(c2ccc(Cl)cc2)C1 [Venetoclax] (first compound max 10 µM, 7x7, partner max 1 µM)	-0.0461
Cc1c2c(nn1C)CSCc1cc(n(C)n1)CSc1cc(c3ccccc3c1)OCCCc1c(C(=O)O)n(C)c3c-2c(Cl)ccc13 [AZD5991] + CS(=O)(=O)CCNCc1ccc(-c2ccc3ncnc(Nc4ccc(OCc5cccc(F)c5)c(Cl)c4)c3c2)o1 [Lapatinib] (first compound max 1 µM, 7x7, partner max 10 µM)	-0.0112
